Record: compiled IC50 on Kynurenine 3-monooxygenase (Rattus norvegicus, UniProt O88867) from multiple reports.
Answers are plain numbers, in nM.

The following compounds have reported results that may help.
1. COc1ccc(S(=O)(=O)Nc2nc(-c3cc(C(F)(F)F)ccc3F)cs2)cc1OC
22
2. NC(CC(=O)c1ccc(Cl)c(Cl)c1)C(=O)O (racemic)
200
3. COc1ccc(C(=O)CC(N)C(=O)O)cc1 (racemic)
30000
4. COc1ccc(Cl)cc1C(=O)CC(N)C(=O)O (racemic)
33000
5. COc1ccc(S(=O)(=O)Nc2nc(-c3cc(C(F)(F)F)ccc3F)cs2)cc1
50

Here are 7 compounds. What values of IC50 were reported for them?
1. O=C(C[C@@H](Cc1ccccc1)C(=O)O)c1ccc(F)cc1
2. Cc1ccc(S(=O)(=O)Nc2nc(-c3cccc([N+](=O)[O-])c3)cs2)cc1
3. O=[N+]([O-])c1cccc(-c2csc(NS(=O)(=O)c3ccc4ccccc4c3)n2)c1
4. Cc1ccccc1C(=O)CC(N)C(=O)O (racemic)
5. COc1ccc(-c2csc(NS(=O)(=O)c3ccc(C)cc3)n2)cc1OC
6. O=C(CC(NC(=O)C(F)(F)F)C(=O)O)c1ccc(F)c(F)c1 (racemic)
7. NC(CC(=O)c1cccc(F)c1)C(=O)O (racemic)

[1000, 40, 30, 23000, 65, 270, 900]

Recorded IC50 for O=C(CC(Cc1ccccc1)c1nnn[nH]1)c1ccc(Cl)c(Cl)c1 (stereo not shown) , please?
2320
